Target: HIV-1 YU2 Env on the cell surface (HIV-1 YU2, UniProt P35961)
Sequence (P35961 32-843): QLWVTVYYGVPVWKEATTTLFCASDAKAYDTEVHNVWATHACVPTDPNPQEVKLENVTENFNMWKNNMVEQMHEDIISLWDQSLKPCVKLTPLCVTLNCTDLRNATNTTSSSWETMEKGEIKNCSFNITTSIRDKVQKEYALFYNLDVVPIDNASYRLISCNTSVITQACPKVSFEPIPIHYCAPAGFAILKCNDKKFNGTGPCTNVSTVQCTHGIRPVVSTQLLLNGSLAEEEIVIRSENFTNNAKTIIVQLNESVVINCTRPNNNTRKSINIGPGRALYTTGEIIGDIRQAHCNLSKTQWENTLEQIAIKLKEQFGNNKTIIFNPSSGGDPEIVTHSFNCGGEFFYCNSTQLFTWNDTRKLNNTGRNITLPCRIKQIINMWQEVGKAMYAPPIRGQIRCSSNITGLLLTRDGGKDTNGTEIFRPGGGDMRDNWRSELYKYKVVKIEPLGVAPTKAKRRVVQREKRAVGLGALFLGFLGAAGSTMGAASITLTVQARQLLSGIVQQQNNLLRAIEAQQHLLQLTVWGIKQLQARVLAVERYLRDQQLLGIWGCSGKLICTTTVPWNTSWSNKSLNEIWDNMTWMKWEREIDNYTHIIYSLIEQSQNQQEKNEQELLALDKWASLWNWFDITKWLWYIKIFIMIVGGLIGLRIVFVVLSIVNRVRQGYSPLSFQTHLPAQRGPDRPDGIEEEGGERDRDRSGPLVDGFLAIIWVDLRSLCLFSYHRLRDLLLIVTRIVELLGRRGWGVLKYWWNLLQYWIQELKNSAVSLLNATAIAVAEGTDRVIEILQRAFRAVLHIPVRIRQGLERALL
Assay: flow cytometry on cells

Binder	binding result
Fab PGT 127 (Fab, V domains shown) VH: QPQLQESGPGLVEASETLSLTCTVSGDSTGRCNYFWGWVRQPPGKGLEWIGSLSHCRSYYNTDWTYHNPSLKSRLTISLDTPKNQVFLRLTSVTAADTATYYCARFGGEVLVYRDWPKPAWVDLWGRGTLVTVSS VL: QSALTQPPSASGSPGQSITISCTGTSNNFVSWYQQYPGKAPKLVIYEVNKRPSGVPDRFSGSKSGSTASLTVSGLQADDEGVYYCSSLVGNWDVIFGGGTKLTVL	binds
PGT 128 IgG (antibody, V domains shown) VH: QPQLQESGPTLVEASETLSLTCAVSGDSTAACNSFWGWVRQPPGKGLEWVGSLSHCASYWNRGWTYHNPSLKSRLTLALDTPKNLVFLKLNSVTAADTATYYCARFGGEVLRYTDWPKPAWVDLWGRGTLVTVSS VL: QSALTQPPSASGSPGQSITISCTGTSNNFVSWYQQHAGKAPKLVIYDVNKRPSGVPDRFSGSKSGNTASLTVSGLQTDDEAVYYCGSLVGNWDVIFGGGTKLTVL	binds
Fab PGT 128 (Fab, V domains shown) VH: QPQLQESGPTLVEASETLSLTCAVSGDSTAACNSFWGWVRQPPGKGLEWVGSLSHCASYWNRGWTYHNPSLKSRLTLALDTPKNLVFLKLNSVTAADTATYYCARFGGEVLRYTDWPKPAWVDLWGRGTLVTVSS VL: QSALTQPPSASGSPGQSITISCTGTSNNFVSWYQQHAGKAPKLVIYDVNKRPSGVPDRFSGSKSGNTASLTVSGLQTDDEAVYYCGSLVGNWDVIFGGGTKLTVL	binds
